Organism: Rattus norvegicus
PROTOCOL_SUMMARY: Inhibitory activity against whole cell Ras prenylation
Format: functional
pEC50: −log10 of the molar value.
We use 7 as the dividing line for pEC50: on or above the line is met, below is not met.

INSERT INTO results (smiles_repr, classification) VALUES
  ('CSCC[C@H](NC(=O)c1ccc(CN(CCC2CCCCC2)C(=O)c2ccccc2)cc1-c1ccccc1C)C(=O)O', 'not met');

input: Threshold query (pEC50 >= 7) on CSCC[C@H](NC(=O)c1ccc(CN[C@H](CCCC(C)C)CC2CCCCC2)cc1-c1ccccc1C)C(=O)O
output: met

input: Determine whether measured pEC50 meets or exceeds 7 for CSCC[C@H](NC(=O)c1ccc(CN(C)CCC2CCCCC2)cc1-c1ccccc1C)C(=O)O
output: met

input: Please check the record CSCC[C@H](NC(=O)c1ccc(CNCCC2CCCCC2)cc1-c1ccccc1C)C(=O)O and state if its pEC50 is at or above 7.
output: not met

input: Threshold query (pEC50 >= 7) on CSCC[C@H](NC(=O)c1ccc(CN[C@H](CSC(C)(C)C)CC2CCCCC2)cc1-c1ccccc1C)C(=O)O
output: met

input: Decide: is the reported value of pEC50 for CCCC[C@H](CC1CCCCC1)NCc1ccc(C(=O)N[C@@H](CCSC)C(=O)O)c(-c2ccccc2C)c1 equal to or greater than 7?
output: met

----------
Organism: Rattus norvegicus
PROTOCOL_SUMMARY: Inhibitory activity against whole cell Ras prenylation
Type: functional
Catalogue of pEC50 values
# pEC50 = -log10(concentration in molar units)

These solved cases illustrate the format of a correct answer.
INSERT INTO results (smiles_repr, numeric_value) VALUES
  ('CSCC[C@H](NC(=O)c1ccc(CN[C@H](CSc2ccccc2)CC2CCCCC2)cc1-c1ccccc1C)C(=O)O', 7.92),
  ('CSCC[C@H](NC(=O)c1ccc(CN(CCC2CCCCC2)C(=O)OC(C)(C)C)cc1-c1ccccc1C)C(=O)O', 6.80),
  ('CSCC[C@H](NC(=O)c1ccc(CN[C@H](CO)CC2CCCCC2)cc1-c1ccccc1C)C(=O)O', 6.72);

input: Entry CCSC[C@H](CC1CCCCC1)NCc1ccc(C(=O)N[C@@H](CCSC)C(=O)O)c(-c2ccccc2C)c1 : reported pEC50 = ?
output: 8.36

----------
Listing: IC50 of selected molecules
SYSTEM: Protein farnesyltransferase (Rattus norvegicus, UniProt Q02293+Q04631)
PROTOCOL_SUMMARY: In vitro inhibitory activity against Farnesyltransferase (FTase)
Please reply with the bare figure in nM and do not write the unit itself.

Before answering, review these 5 worked examples.
INSERT INTO results (smiles_repr, unit_tag, numeric_value) VALUES
  ('CSCC[C@H](NC(=O)c1ccc(CN(CCC2CCCCC2)C(=O)OC(C)(C)C)cc1-c1ccccc1C)C(=O)O', 'nM', 0.17),
  ('CSCC[C@H](NC(=O)c1ccc(CNC(CC2CCCCC2)CC2CCCCC2)cc1-c1ccccc1C)C(=O)O', 'nM', 0.25),
  ('CCCC[C@H](CC1CCCCC1)NCc1ccc(C(=O)N[C@@H](CCSC)C(=O)O)c(-c2ccccc2C)c1', 'nM', 0.46),
  ('CCSC[C@H](CC1CCCCC1)NCc1ccc(C(=O)N[C@@H](CCS(C)(=O)=O)C(=O)O)c(-c2ccccc2C)c1', 'nM', 1),
  ('CSCC[C@H](NC(=O)c1ccc(CN(CCC2CCCCC2)C(C)=O)cc1-c1ccccc1C)C(=O)O', 'nM', 2.9);

input: # query: IC50 of entry CSCC[C@H](NC(=O)c1ccc(CNCCC2CCCCC2)cc1-c1ccccc1C)C(=O)O
output: 0.17

input: For COC[C@H](CC1CCCCC1)NCc1ccc(C(=O)N[C@@H](CCSC)C(=O)O)c(-c2ccccc2C)c1 , what is its reported IC50?
output: 0.66

----------
Species on record: Rattus norvegicus
PROTOCOL_SUMMARY: Inhibitory activity against whole cell Ras prenylation
Format: functional
Recorded measurements of EC50, one per entry

Past entries and their recorded results:
INSERT INTO assay_data (smiles_repr, result) VALUES
  ('CSCC[C@H](NC(=O)c1ccc(CN(CCC2CCCCC2)Cc2ccccc2)cc1-c1ccccc1C)C(=O)O', '> 1000 nM'),
  ('CSCC[C@H](NC(=O)c1ccc(CN(CCC2CCCCC2)C(C)=O)cc1-c1ccccc1C)C(=O)O', '> 1000 nM'),
  ('CSCC[C@H](NC(=O)c1ccc(CN[C@H](C)CC2CCCCC2)cc1-c1ccccc1C)C(=O)O', '> 1000 nM');

Below: the item to evaluate.
input: # query: EC50 of entry CC[C@H](CC1CCCCC1)NCc1ccc(C(=O)N[C@@H](CCSC)C(=O)O)c(-c2ccccc2C)c1
output: > 1000 nM
